FYI, the data here is from ChEMBL document CHEMBL3865824.

experiment: Cytotoxicity against […] cells assessed as growth inhibition at 50 uM after 48 hrs by MTT assay relative to control; type: functional; settings: Mus musculus, 4T1, 48 h; read-out: GI
Property name: inhibition of growth at 50 µM

[[record]]
smiles_record = "CC(C)n1c(/C=C2/C(=O)Nc3ccccc32)nc2ccccc21"
property_name = "inhibition of growth at 50 µM"
measured = "> 50%"


Could you now consider this next molecule?
Qu. Specify reported inhibition of growth at 50 µM for the molecule shown: "CC(C)n1c(/C=C2/C(=O)Nc3ccc(Cl)cc32)nc2ccccc21"
Ans. > 50%

###

experiment: Cytotoxicity against human A549 cells assessed as reduction in cell viability after 48 hrs by MTT assay; format: functional, cell-based; settings: A549, 48 h
Property name: IC50 (µM)
Numeric only. Scale: µM

Would you please look over these solved cases?
[[record]]
smiles_record = "CC(C)n1c(/C=C2/C(=O)Nc3ccc(F)cc32)nc2ccccc21"
unit_of_measurement = "µM"
measured = 28.4

[[record]]
smiles_record = "Cn1c(/C=C2/C(=O)Nc3ccc(F)cc32)nc2ccccc21"
unit_of_measurement = "µM"
measured = 34.6

[[record]]
smiles_record = "Cn1c(/C=C2/C(=O)Nc3ccc(Br)cc32)nc2ccccc21"
unit_of_measurement = "µM"
measured = 41.2


Could you now consider this next compound?
Qu. Specify reported IC50 for the compound shown: "Cn1c(/C=C2/C(=O)Nc3ccc(Cl)cc32)nc2ccccc21"
Ans. 39.7
